Cited source: patent US20240174648A1

# target_of_assay: Tyk2 (Homo sapiens, UniProt P29597)
# Sequence (P29597 whole entry): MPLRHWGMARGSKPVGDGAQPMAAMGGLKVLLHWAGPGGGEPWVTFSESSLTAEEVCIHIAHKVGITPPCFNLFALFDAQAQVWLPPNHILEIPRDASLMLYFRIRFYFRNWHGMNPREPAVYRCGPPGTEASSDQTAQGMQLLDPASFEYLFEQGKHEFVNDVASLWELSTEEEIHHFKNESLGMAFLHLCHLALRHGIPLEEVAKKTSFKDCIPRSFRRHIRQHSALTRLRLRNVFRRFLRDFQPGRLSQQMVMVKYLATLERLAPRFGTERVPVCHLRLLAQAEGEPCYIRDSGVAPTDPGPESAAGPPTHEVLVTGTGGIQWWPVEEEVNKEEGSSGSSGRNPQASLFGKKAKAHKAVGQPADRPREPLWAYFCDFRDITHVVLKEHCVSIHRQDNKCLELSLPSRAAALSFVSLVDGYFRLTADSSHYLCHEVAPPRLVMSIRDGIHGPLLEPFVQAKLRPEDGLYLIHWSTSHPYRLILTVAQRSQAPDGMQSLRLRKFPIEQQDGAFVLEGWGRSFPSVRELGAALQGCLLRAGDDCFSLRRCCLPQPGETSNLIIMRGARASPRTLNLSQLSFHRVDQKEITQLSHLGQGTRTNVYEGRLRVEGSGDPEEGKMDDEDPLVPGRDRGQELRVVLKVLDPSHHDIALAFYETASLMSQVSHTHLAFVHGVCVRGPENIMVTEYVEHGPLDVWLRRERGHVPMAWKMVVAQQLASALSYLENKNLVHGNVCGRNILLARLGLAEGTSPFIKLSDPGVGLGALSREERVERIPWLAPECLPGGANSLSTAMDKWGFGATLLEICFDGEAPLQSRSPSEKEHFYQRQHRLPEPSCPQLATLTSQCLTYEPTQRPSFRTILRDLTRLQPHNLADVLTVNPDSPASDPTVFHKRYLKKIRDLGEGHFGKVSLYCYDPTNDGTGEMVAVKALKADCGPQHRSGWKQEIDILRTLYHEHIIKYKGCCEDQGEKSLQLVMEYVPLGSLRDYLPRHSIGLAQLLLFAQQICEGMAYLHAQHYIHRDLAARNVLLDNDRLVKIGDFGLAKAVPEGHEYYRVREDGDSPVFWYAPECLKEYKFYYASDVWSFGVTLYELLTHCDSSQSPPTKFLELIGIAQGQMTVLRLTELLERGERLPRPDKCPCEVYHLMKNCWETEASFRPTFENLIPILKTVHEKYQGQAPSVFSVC
# assay_name: JAK kinase inhibition assay (EZ Reader, peptide substrate phosphorylation) - Tyk2
# Assay type: biochemical
# applied_conditions: Tyk2 kinase 1 nM; 8 concentration points, max 10 μM
observation_type: IC50

| compound | target_of_assay | IC50 |
| --- | --- | --- |
| Cn1cc(Nc2nccc(-c3ccc(NC(=O)CC#N)nc3)n2)cn1 | Tyk2 (Homo sapiens, UniProt P29597) | 0.1 to 1 µM |
| C=CCS(=O)(=O)Nc1ccc(-c2ccnc(Nc3cnn(C)c3)n2)cc1 | Tyk2 (Homo sapiens, UniProt P29597) | 0.1 to 1 µM |
| Cn1cc(Nc2nccc(-c3ccc(NC(=O)C4CC4)c4cc[nH]c34)n2)cn1 | Tyk2 (Homo sapiens, UniProt P29597) | ≥ 10 µM |
| Cn1cc(Nc2nccc(-c3ccc(C(=O)NCC(F)(F)F)cc3)n2)cn1 | Tyk2 (Homo sapiens, UniProt P29597) | 0.1 to 1 µM |
| Cn1cc(Nc2nccc(-c3ccc(-n4nccc4C4CC4)cc3)n2)cn1 | Tyk2 (Homo sapiens, UniProt P29597) | 1 to 10 µM |
| Cn1cc(Nc2nccc(-c3ccc(NC(=O)CO)cc3)n2)cn1 | Tyk2 (Homo sapiens, UniProt P29597) | 1 to 10 µM |

Here's the next entry for you.
Record summary for "Cc1cc(-c2ccnc(Nc3cnn(C)c3)n2)cnc1NC(=O)CC#N" : reported IC50 = 1 to 10 µM

* * *

# target_of_assay: Tyk2 (Homo sapiens, UniProt P29597)
# assay_name: JAK kinase inhibition assay (EZ Reader, peptide substrate phosphorylation) - Tyk2
# Type: biochemical
# applied_conditions: Tyk2 kinase 1 nM; 8 concentration points, max 10 μM
observation_type: IC50

Here's what some known entries look like.
| compound | recorded_value |
| --- | --- |
| Cn1cc(Nc2nccc(-c3ccc(NC(=O)C4CC4(F)F)cc3)n2)cn1 (stereo not drawn) | < 0.1 µM |
| Cn1cc(Nc2nccc(-c3ccc(CNCC(F)(F)F)cc3)n2)cn1 | 0.1 to 1 µM |
| Cn1cc(Nc2nccc(-c3ccc(NC(=O)CC4CC4)cc3)n2)cn1 | 0.1 to 1 µM |
| CCCS(=O)(=O)Nc1ccc(-c2ccnc(Nc3cnn(C)c3)n2)cn1 | ≥ 10 µM |
| CCOCCS(=O)(=O)Nc1ccc(-c2ccnc(Nc3cnn(C)c3)n2)cn1 | 1 to 10 µM |

Summary for this compound, "Cn1cc(Nc2nccc(-c3ccc(NC(=O)CC4CC4)c4cc[nH]c34)n2)cn1" : IC50 is ≥ 10 µM

Item: "Cc1cc(-c2ccnc(Nc3cnn(C)c3)n2)ccc1-n1nccc1C1CC1" | IC50: 1 to 10 µM

Value of measured IC50 for the entry "Cn1cc(Nc2nccc(-c3ccc(NC(=O)C4(C)CC4)nc3)n2)cn1" : 1 to 10 µM

// sample "Cn1cc(Nc2nccc(-c3ccc(NC(=O)C4CC4)nc3)n2)cn1" , its IC50 was 0.1 to 1 µM

* * *

// IC50 lookup, one value per entry
# target_of_assay: Tyk2 (Homo sapiens)
# assay_name: JAK kinase inhibition assay (EZ Reader, peptide substrate phosphorylation) - Tyk2
# Assay type: biochemical
# applied_conditions: Tyk2 kinase 1 nM; 8 concentration points, max 10 μM

# annotated cases, reported IC50 shown
| given_smiles | IC50 |
| --- | --- |
| CN1CCN(c2ccc(-c3ccnc(Nc4cnn(C)c4)n3)cc2)CC1 | 1 to 10 µM |
| Cn1cc(Nc2nccc(-c3cnc(NS(=O)(=O)Cc4ccccc4)nc3)n2)cn1 | ≥ 10 µM |
| Cn1cc(Nc2nccc(-c3cnc(NC(=O)CC#N)nc3)n2)cn1 | 1 to 10 µM |
| COCC(=O)Nc1cc(-c2ccnc(Nc3cnn(C)c3)n2)ccn1 | ≥ 10 µM |
| Cn1cc(Nc2nccc(-n3ccc4c(NC(=O)CC5CC5)cccc43)n2)cn1 | 1 to 10 µM |
| Cn1cc(Nc2nccc(-n3ccc4c(NC(=O)C5CC5)cccc43)n2)cn1 | 0.1 to 1 µM |
| Cn1cc(Nc2nccc(-n3ccc4c(NC(=O)CC(F)(F)F)cccc43)n2)cn1 | 0.1 to 1 µM |
| Cn1cc(Nc2nccc(-c3cnc(NC(=O)CC#N)c(F)c3)n2)cn1 | 1 to 10 µM |

Case "Cn1cc(Nc2nccc(-c3ccc(NS(=O)(=O)Cc4ccccc4)nc3)n2)cn1" , Tyk2 (Homo sapiens), IC50 recorded as 0.1 to 1 µM
